Sourced from ChEMBL document CHEMBL3045862

Measured Tmax values are reported for all entries that follow.
# Assay Notes: Tmax in Rattus norvegicus Sprague-Dawley (rat) at 17.5 mg/kg, administered intramuscularly
# Format: ADME, organism-based
# Set-up: dose 17.5 mg/kg, route intramuscular
# Details: in vivo, im
Please give the number followed by its unit.

I am curious: what Tmax value has been reported for CCO[C@@H]1O[C@@H]2O[C@]3(C)CC[C@H]4[C@H](C)CC[C@@H]([C@H]1C)[C@@]24OO3 [ALPHA-ARTEETHER] ?
30 min

Give the measured Tmax of CCO[C@H]1O[C@@H]2O[C@@]3(C)CC[C@H]4[C@H](C)CC[C@@H]([C@H]1C)[C@@]24OO3 [ARTEMOTIL] .
30 min
